study target: bovine serum albumin (BSA) (Bos taurus, UniProt P02769)
Construct: gene ALB; commercial native serum albumin (Sigma Aldrich, named for the FT-IR work), mature protein 583 residues, no tags
Sequence (P02769 25-607): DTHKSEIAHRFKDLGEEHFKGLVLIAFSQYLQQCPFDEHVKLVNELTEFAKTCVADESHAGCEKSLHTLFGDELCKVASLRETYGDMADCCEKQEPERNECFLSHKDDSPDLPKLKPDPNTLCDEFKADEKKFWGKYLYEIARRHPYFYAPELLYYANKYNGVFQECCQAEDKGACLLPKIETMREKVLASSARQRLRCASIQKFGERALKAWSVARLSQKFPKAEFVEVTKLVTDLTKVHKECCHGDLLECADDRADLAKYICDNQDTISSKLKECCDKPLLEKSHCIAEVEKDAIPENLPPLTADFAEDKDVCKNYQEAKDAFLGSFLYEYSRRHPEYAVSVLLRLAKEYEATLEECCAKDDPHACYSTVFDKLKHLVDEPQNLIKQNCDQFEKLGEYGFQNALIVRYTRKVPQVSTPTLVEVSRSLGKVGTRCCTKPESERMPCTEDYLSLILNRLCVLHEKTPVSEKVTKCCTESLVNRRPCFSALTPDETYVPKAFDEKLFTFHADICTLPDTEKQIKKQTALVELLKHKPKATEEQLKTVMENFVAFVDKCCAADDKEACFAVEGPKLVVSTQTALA
assay explanation: intrinsic fluorescence quenching (ex […] nm)
Type: binding
measurement conditions: […] K, pH […] BSA; static quenching; n about […]; subdomain IIIA by site markers; double-log
readout: Binding / Kb × 10^4 [dm^3mol^-1]

Record excerpt, results attached:
Binding / Kb × 10^4 [dm^3mol^-1] value, target or system bovine serum albumin (BSA) (Bos taurus, UniProt P02769), for "CCCCn1c(C)c2c(OCc3nn(CN4CCN(c5ccc(C)cc5)CC4)c(=S)n3C)nn(C)c(=O)c2c1C" : 4.90 × 10^4 dm^3 mol^-1

Reading of Binding / Kb × 10^4 [dm^3mol^-1] for "CCCCn1c(C)c2c(OCc3nn(CN4CCN(c5ccccc5)CC4)c(=S)n3-c3ccccc3)nn(C)c(=O)c2c1C" with bovine serum albumin (BSA) (Bos taurus, UniProt P02769): 6.61 × 10^4 dm^3 mol^-1

Record "CCCCn1c(C)c2c(OCc3nnc(SCC(=O)N4CCN(c5ccccc5)CC4)n3-c3ccc(OC)cc3)nn(C)c(=O)c2c1C" ; system bovine serum albumin (BSA) (Bos taurus, UniProt P02769); Binding / Kb × 10^4 [dm^3mol^-1] = 9.33 × 10^4 dm^3 mol^-1

Reported bovine serum albumin (BSA) (Bos taurus, UniProt P02769) Binding / Kb × 10^4 [dm^3mol^-1] for item "CCCCn1c(C)c2c(OCc3nn(CN4CCN(c5ccc(C)cc5)CC4)c(=S)n3-c3ccc(OC)cc3)nn(C)c(=O)c2c1C" was 9.55 × 10^4 dm^3 mol^-1

The recorded Binding / Kb × 10^4 [dm^3mol^-1] with bovine serum albumin (BSA) (Bos taurus, UniProt P02769) for "CCCCn1c(C)c2c(OCc3nn(CN4CCN(c5ccc(C)cc5)CC4)c(=S)n3-c3ccccc3)nn(C)c(=O)c2c1C" was 8.13 × 10^4 dm^3 mol^-1

Summary: "CCCCn1c(C)c2c(OCc3nnc(SCC(=O)N4CCN(c5ccccc5)CC4)n3-c3ccccc3)nn(C)c(=O)c2c1C" , bovine serum albumin (BSA) (Bos taurus, UniProt P02769), Binding / Kb × 10^4 [dm^3mol^-1] = 9.33 × 10^4 dm^3 mol^-1

Could you now look at the following compound, please?
Form field, Binding / Kb × 10^4 [dm^3mol^-1] with bovine serum albumin (BSA) (Bos taurus, UniProt P02769), item "CCCCn1c(C)c2c(OCc3nn(CN4CCN(c5cccc(C(F)(F)F)c5)CC4)c(=S)n3C)nn(C)c(=O)c2c1C" : 8.13 × 10^4 dm^3 mol^-1

The reported numbers originate from paper PMC8540742.
